assayText: Pharmacokinetics of imepitoin in cats after oral administration (Example 1)
Type: in vivo, cat
conditionParameters: male, domestic short hair, plasma, po; males (n=3), Day 0, first dose of 30 mg/kg
measuredQuantity: Cmax (ng/mL)
Report the value in ng/mL with no unit label.

Incoming: Which measured Cmax value corresponds to O=C1N=C(N2CCOCC2)CN1c1ccc(Cl)cc1 [imepitoin] ?
Outgoing: 7050

---

assayText: Pharmacokinetics of imepitoin in cats after oral administration (Example 1)
Format: in vivo, cat
conditionParameters: female, domestic short hair, plasma, po; females (n=3), Day 0, first dose of 30 mg/kg
measuredQuantity: Cmax (ng/mL)
Give just the numeric value; ng/mL need not be written.

Incoming: Query (molecule): O=C1N=C(N2CCOCC2)CN1c1ccc(Cl)cc1 [imepitoin] ; field requested: Cmax
Outgoing: 6640

---

assayText: Pharmacokinetics of imepitoin in cats after oral administration (Example 1)
Type: in vivo, cat
conditionParameters: female, domestic short hair, plasma, po; females (n=3), Day 0, first dose of 30 mg/kg; read-out: AUC0-6h
measuredQuantity: AUC(0-t)
Entry format: amount then unit.

Incoming: For the compound shown here, O=C1N=C(N2CCOCC2)CN1c1ccc(Cl)cc1 [imepitoin] , give the reported AUC(0-t).
Outgoing: 24500 ng·h/mL
